- SYSTEM: HIV-1 CMU02 Env (pseudovirus) (HIV-1 isolate CMU02)
- ASSAY REMARKS: cell-based or functional assay
REPORTED PROPERTY: IC50 (µg/mL), pseudovirus neutralization

Known IC50 (µg/mL), pseudovirus neutralization results, listed for orientation:
- BINDER: "1456_P20 (PG20) (antibody, human IgG1, kappa, V domains shown) VH: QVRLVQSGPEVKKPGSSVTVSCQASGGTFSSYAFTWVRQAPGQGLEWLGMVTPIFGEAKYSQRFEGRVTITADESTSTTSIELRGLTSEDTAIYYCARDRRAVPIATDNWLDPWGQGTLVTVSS VL: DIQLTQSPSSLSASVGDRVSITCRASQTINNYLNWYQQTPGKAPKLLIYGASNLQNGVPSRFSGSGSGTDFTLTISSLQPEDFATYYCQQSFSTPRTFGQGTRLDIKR"
  IC50 (µg/mL), pseudovirus neutralization: "> 50 µg/mL"
- BINDER: "1443_C16 (PG16) (TCN-116) (antibody, V domains shown) VH: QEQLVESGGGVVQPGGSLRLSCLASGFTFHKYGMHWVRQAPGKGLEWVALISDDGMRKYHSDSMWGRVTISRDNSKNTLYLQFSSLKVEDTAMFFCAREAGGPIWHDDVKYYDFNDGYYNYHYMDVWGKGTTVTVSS VL: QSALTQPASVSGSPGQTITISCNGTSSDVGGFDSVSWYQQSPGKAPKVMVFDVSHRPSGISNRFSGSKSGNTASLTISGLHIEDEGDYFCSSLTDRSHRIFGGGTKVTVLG"
  IC50 (µg/mL), pseudovirus neutralization: "> 50 µg/mL"
- BINDER: "1496_C09 (PG9) (TCN-109) (antibody, V domains shown) VH: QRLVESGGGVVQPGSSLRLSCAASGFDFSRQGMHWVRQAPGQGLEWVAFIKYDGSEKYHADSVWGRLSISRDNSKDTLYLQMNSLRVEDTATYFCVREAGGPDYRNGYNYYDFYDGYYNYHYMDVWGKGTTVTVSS VL: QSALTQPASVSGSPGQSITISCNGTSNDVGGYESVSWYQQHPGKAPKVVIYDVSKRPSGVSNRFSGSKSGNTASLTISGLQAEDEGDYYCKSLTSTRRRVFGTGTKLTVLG"
  IC50 (µg/mL), pseudovirus neutralization: "> 50 µg/mL"
- BINDER: "1495_C14 (PGC14) (antibody, human IgG1, lambda, V domains shown) VH: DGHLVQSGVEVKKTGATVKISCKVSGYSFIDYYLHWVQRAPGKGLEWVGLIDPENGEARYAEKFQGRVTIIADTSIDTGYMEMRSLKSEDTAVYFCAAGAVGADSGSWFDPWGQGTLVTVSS VL: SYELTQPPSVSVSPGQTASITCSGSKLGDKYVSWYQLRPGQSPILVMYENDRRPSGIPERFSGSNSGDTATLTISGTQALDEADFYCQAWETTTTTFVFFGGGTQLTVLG"
  IC50 (µg/mL), pseudovirus neutralization: "> 50 µg/mL"

Fill blank: measured IC50 (µg/mL), pseudovirus neutralization of the binder 1460_G14 (PGG14) (antibody, human IgG1, kappa, V domains shown) VH: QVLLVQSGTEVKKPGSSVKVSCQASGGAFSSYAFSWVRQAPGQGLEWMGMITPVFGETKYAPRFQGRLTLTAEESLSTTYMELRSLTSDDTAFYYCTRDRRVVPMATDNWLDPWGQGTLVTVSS VL: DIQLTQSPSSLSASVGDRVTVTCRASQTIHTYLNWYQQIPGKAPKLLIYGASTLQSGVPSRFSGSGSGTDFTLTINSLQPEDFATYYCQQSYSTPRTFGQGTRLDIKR is ____.
> 50 µg/mL
